- Test system: U2OS
- Test protocol: Multiplex assay against U2OS
- Format: toxicity, cell-based
- Conditions: human, 48 h, 10 µM, compound concentration 10 uM, replicate 1
Quantity: Population Pyknosed Nuclei (%)

Compound: Cc1cc(=O)n(C)c2cc(N3C(=O)CC[C@H](NS(=O)(=O)CC(C)C)[C@H]3c3ccc(Cl)cc3)ccc12
Quantity: Population Pyknosed Nuclei (%)
Numeric result: 22

Compound: COc1cc2nc(N3CCN(C(=O)c4ccco4)CC3)nc(N)c2cc1OC.Cl [PRAZOSIN HYDROCHLORIDE]
Quantity: Population Pyknosed Nuclei (%)
Numeric result: 8

Compound: CC(C)(C)c1ccc(CSc2cnn(C(C)(C)C)c(=O)c2Cl)cc1
Quantity: Population Pyknosed Nuclei (%)
Numeric result: 14

Compound: CCC(=O)OCC(=O)[C@@]1(OC(=O)CC)[C@@H](C)C[C@H]2[C@@H]3CCC4=CC(=O)C=C[C@]4(C)[C@@]3(Cl)[C@@H](O)C[C@@]21C [BECLOMETHASONE DIPROPIONATE]
Quantity: Population Pyknosed Nuclei (%)
Numeric result: 15

* * *

Entries and their Population Normal (%)
- System: HEK-293T
- Test protocol: Multiplex assay against HEK293T
- Type: toxicity, cell-based
- Conditions: human, 24 h, 10 µM, compound concentration 10 uM, replicate 1
Quantity: Population Normal (%)

Compound: COc1cc(Nc2ncc3c(n2)-c2ccc(Cl)cc2C(c2c(F)cccc2OC)=NC3)ccc1C(=O)O
Numeric result: 93
--
Compound: Cc1c(Cc2ccc3ccccc3n2)c2cc(F)ccc2n1CC(=O)O
Numeric result: 95
--
Compound: CCCCCCNC(=O)Nc1ccc(S(=O)(=O)Nc2ccc(CCNC[C@H](O)COc3ccc(O)cc3)cc2)cc1
Numeric result: 85
--
Compound: O=c1ccc2ccc(OCCCCN3CCN(c4cccc5sccc45)CC3)cc2[nH]1
Numeric result: 31
--
Compound: CCn1c(-c2nc3cc(C(=O)N4CCCC(N)C4)ccc3n2C)cc2ccccc21.Cl (stereo not given)
Numeric result: 87

* * *

- Tested on: U2OS
- Test protocol: Multiplex assay against U2OS
- Format: toxicity, cell-based
- Conditions: human, 48 h, 1 µM, compound concentration 1 uM, replicate 1
# maps each entry to its Population Mitotic Cells (%)
Quantity: Population Mitotic Cells (%)

Molecule: CN(C)C(=O)Cn1cc(-c2ccc(-c3nnc4ccccn34)cc2)cn1
Endpoint unit: %
Numeric result: 12
//
Molecule: Nc1nc(-c2ccco2)c2cnn(Cc3ccccc3F)c2n1
Endpoint unit: %
Numeric result: 5
//
Molecule: CN1C[C@H](C(=O)N[C@]2(C)O[C@@]3(O)[C@@H]4CCCN4C(=O)[C@H](Cc4ccccc4)N3C2=O)C[C@@H]2c3cccc4[nH]cc(c34)C[C@H]21.CS(=O)(=O)O [DIHYDROERGOTAMINE MESYLATE]
Endpoint unit: %
Numeric result: 19
//
Molecule: COc1ccc2c(c1OCc1ccccc1)C[C@@H](C(=O)O)N(C(=O)C(c1ccccc1)c1ccccc1)C2
Endpoint unit: %
Numeric result: 8
//
Molecule: O=C(Nc1cc(-c2ccccc2)nn1-c1ccccc1F)c1ccc([N+](=O)[O-])cc1
Endpoint unit: %
Numeric result: 10
//
Molecule: Nc1nc(CC(=O)Nc2ccc(CCNC[C@H](O)c3ccccc3)cc2)cs1
Endpoint unit: %
Numeric result: 15

* * *

- System: Fibroblast
- Test protocol: Multiplex assay against human fibroblast
- Type: toxicity, cell-based
- Conditions: 48 h, 10 µM, compound concentration 10 uM, replicate 2
Quantity: Population Normal (%)

Compound: CC(C)C[C@H](CO)Nc1nc(S[C@@H](C)c2ccccc2)nc2nc(N)sc12 [AZD-8797]
Quantity: Population Normal (%)
Numeric result: 98
//
Compound: Cc1c(Cc2ccc3ccccc3n2)c2cc(F)ccc2n1CC(=O)O [TIMAPIPRANT]
Quantity: Population Normal (%)
Numeric result: 97
//
Compound: OCCCNc1cc(-c2ccnc(Nc3cccc(Cl)c3)n2)ccn1
Quantity: Population Normal (%)
Numeric result: 93
//
Compound: Cc1cc(-c2ccc3c(c2)CC[C@H]3N2CC3(CCN(C(=O)Cc4cn5cc(C)sc5n4)CC3)C2)ncn1 [PF-5190457]
Quantity: Population Normal (%)
Numeric result: 98
//
Compound: S=C(NCCCc1c[nH]cn1)NCCCN(Cc1ccc(Cl)c(Cl)c1)c1ccc(Br)cn1
Quantity: Population Normal (%)
Numeric result: 94
//
Compound: Cc1cc(NC(=O)NCCN2CCC(O)(Cc3ccccc3)CC2)c2ccccc2n1 [PALOSURAN]
Quantity: Population Normal (%)
Numeric result: 97
//
Compound: O=C(Nc1cc(-c2ccccc2)nn1-c1ccccc1F)c1ccc([N+](=O)[O-])cc1
Quantity: Population Normal (%)
Numeric result: 94
//
Compound: CC(C)(C)c1ccc(CSc2cnn(C(C)(C)C)c(=O)c2Cl)cc1 [PYRIDABEN]
Quantity: Population Normal (%)
Numeric result: 94
//
Compound: CCCCCCNC(=O)Nc1ccc(S(=O)(=O)Nc2ccc(CCNC[C@H](O)COc3ccc(O)cc3)cc2)cc1 [L-755507]
Quantity: Population Normal (%)
Numeric result: 96
//
Compound: Cn1cc(C(=O)OCC2CCN(CCNS(C)(=O)=O)CC2)c2ccccc21
Quantity: Population Normal (%)
Numeric result: 93
//
Compound: Nc1nc(CC(=O)Nc2ccc(CCNC[C@H](O)c3ccccc3)cc2)cs1 [MIRABEGRON]
Quantity: Population Normal (%)
Numeric result: 96
//
Compound: Cc1cc(=O)n(C)c2cc(N3C(=O)CC[C@H](NS(=O)(=O)CC(C)C)[C@H]3c3ccc(Cl)cc3)ccc12
Quantity: Population Normal (%)
Numeric result: 89
//
Compound: CCc1nn2c(C)cc(C)nc2c1Cc1ccc(-c2nnc(C3CCNCC3)o2)cc1
Quantity: Population Normal (%)
Numeric result: 97
//
Compound: COC(c1ccccc1)(c1ccccc1)[C@H](Oc1nc(C)cc(C)n1)C(=O)O [AMBRISENTAN]
Quantity: Population Normal (%)
Numeric result: 96
//
Compound: Cc1cc(O)c(-c2ccc([C@@H](C)CN(C)C)cc2)c2c1[nH]c(=O)c1sccc12
Quantity: Population Normal (%)
Numeric result: 92
//
Compound: O=C(O)CCC/C=C\CC1C(O)CC(O)C1/C=C/C(O)COc1cccc(Cl)c1 (configuration not stated) [CLOPROSTENOL]
Quantity: Population Normal (%)
Numeric result: 91
//
Compound: O=C(NCCNCC(O)COc1ccc(O)cc1)N1CCOCC1.O=C(NCCNCC(O)COc1ccc(O)cc1)N1CCOCC1.O=C(O)/C=C/C(=O)O (configuration not stated) [XAMOTEROL FUMARATE]
Quantity: Population Normal (%)
Numeric result: 96
//
Compound: N[C@](CC1c2ccccc2Oc2ccccc21)(C(=O)O)[C@H]1C[C@@H]1C(=O)O
Quantity: Population Normal (%)
Numeric result: 96
//
Compound: C=CCN1C[C@H](C(=O)N(CCCN(C)C)C(=O)NCC)C[C@@H]2c3cccc4[nH]cc(c34)C[C@H]21 [CABERGOLINE]
Quantity: Population Normal (%)
Numeric result: 94
//
Compound: COCCn1c(C)c(C)s/c1=N\C(=O)C1C(C)(C)C1(C)C
Quantity: Population Normal (%)
Numeric result: 91
//
Compound: CN(C)C/C=C/C(=O)Nc1ccc(C(=O)N2CCCC(Nc3ncc(Cl)c(-c4c[nH]c5ccccc45)n3)C2)cc1 (configuration not stated)
Quantity: Population Normal (%)
Numeric result: 86
//
Compound: Nc1nc(-c2ccco2)c2cnn(Cc3ccccc3F)c2n1
Quantity: Population Normal (%)
Numeric result: 94
//
Compound: COc1cc(Nc2ncc3c(n2)-c2ccc(Cl)cc2C(c2c(F)cccc2OC)=NC3)ccc1C(=O)O [ALISERTIB]
Quantity: Population Normal (%)
Numeric result: 91
//
Compound: CN1CCC(C(=O)c2cccc(NC(=O)c3c(F)cc(F)cc3F)n2)CC1
Quantity: Population Normal (%)
Numeric result: 96
//
Compound: C[C@H](NC(=O)CNC(=O)c1cccc(Cl)c1)c1ccccc1
Quantity: Population Normal (%)
Numeric result: 95
//
Compound: CSc1nc(NC2CCCC2)c([N+](=O)[O-])c(NC2CCCC2)n1 [GS-39783]
Quantity: Population Normal (%)
Numeric result: 93
//
Compound: CC(C)(O)C(=O)N1CCN(c2ccc(C(F)(F)F)c(C3=C(c4c[nH]c5ccccc45)C(=O)NC3=O)c2)CC1
Quantity: Population Normal (%)
Numeric result: 93

* * *

- Test system: Fibroblast
- Test protocol: Multiplex assay against human fibroblast
- Format: toxicity, cell-based
- Conditions: 12 h, 10 µM, compound concentration 10 uM, replicate 2
Quantity: Population Normal (%)

Compound: O=C(O)CCC/C=C\CC1C(O)CC(O)C1/C=C/C(O)COc1cccc(Cl)c1 (stereo not given)
Assay target: Fibroblast
Numeric result: 95
--
Compound: COc1ccc2[nH]c(I)c(CCNC(C)=O)c2c1
Assay target: Fibroblast
Numeric result: 96
--
Compound: Cc1cc(=O)n(C)c2cc(N3C(=O)CC[C@H](NS(=O)(=O)CC(C)C)[C@H]3c3ccc(Cl)cc3)ccc12
Assay target: Fibroblast
Numeric result: 88
--
Compound: CC(C)(C)c1ccc(CSc2cnn(C(C)(C)C)c(=O)c2Cl)cc1
Assay target: Fibroblast
Numeric result: 98
--
Compound: COCCn1c(C)c(C)s/c1=N\C(=O)C1C(C)(C)C1(C)C
Assay target: Fibroblast
Numeric result: 93

Data origin, for the record: ChEMBL document CHEMBL5058577
